- Tested on: A549
- method.notes: NCI tumour cell line growth inhibition, 48 h
Active and inactive are the calls of the source. No stated cut-off is given here; in the data, active = GI50 up to about 1.1 µM and inactive = higher.

molecule: CC(=O)NC1C(OCc2ccccc2)OC(CO)C(O)C1OCC(=O)N[C@@H](C)C(=O)N[C@H](CCC(=O)NCCCNc1ccc([N+](=O)[O-])c2[nH]c3ccccc3c(=O)c12)C(N)=O (some centres undefined)
tested.target: A549
GI50: > 100 µM (inactive)
--
molecule: O=[N+]([O-])c1cc(I)cc(/C=N/NS(=O)(=O)c2ccc(Cl)cc2)c1O
tested.target: A549
GI50: 35.8 µM (inactive)
--
molecule: NC(=O)NNCc1ccccc1
tested.target: A549
GI50: > 100 µM (inactive)
--
molecule: COc1cc(/C=C/c2ccc(O)c(OC)c2)cc(OC)c1
tested.target: A549
GI50: 25.6 µM (inactive)
--
molecule: Cc1cc2ncn(C3CCCCO3)c2cc1C (centres undefined)
tested.target: A549
GI50: > 100 µM (inactive)
--
molecule: CC(=O)Nc1ccc2c3c(cc(O)c2c1)N(C(=O)CCCC(=O)Nc1ccc2c4c(cc(O)c2c1)N(C(=O)OC(C)(C)C)CC4CCl)CC3CCl (centres undefined)
tested.target: A549
GI50: 9.4 µM (inactive)
--
molecule: CCCCCCCCCCCCCCCCCCNc1ccn(C2OC(COP(=O)(O)OCC3OC(n4cc(C)c(=O)[nH]c4=O)CC3N=[N+]=[N-])C(O)C2O)c(=O)n1 (centres undefined)
tested.target: A549
GI50: 52 µM (inactive)
--
molecule: O=C(NCCN1CCCCC1)c1ccc(Br)cc1
tested.target: A549
GI50: > 100 µM (inactive)
--
molecule: O=C(O)c1cc2ccccc2c(/N=N\c2cc(C(F)(F)F)ccc2Cl)c1O
tested.target: A549
GI50: 27.9 µM (inactive)
--
molecule: COC1(C)CP(=O)(OC(C)C)CC(C)=C1Cl (centres undefined)
tested.target: A549
GI50: 17.1 µM (inactive)
--
molecule: CN(NC(=O)c1cccs1)C1=NCCCN1
tested.target: A549
GI50: > 100 µM (inactive)
--
molecule: Cc1ccc(C2SCC(=O)N2c2ccc(-c3ccc(-n4c(-c5ccccc5)nc5ccccc5c4=O)cc3)cc2)cc1 (centres undefined)
tested.target: A549
GI50: > 100 µM (inactive)
--
molecule: Clc1ccc(-c2nc3ccc4ccccc4c3c3c2CCCC3)cc1
tested.target: A549
GI50: 63.4 µM (inactive)
--
molecule: Nc1cc2[nH]cnc2c(=O)[nH]1
tested.target: A549
GI50: 24.5 µM (inactive)
--
molecule: CN1C(=O)CC2(C)c3cc(O)ccc3N(C)C12 (centres undefined)
tested.target: A549
GI50: > 68.5 µM (inactive)
--
molecule: Clc1ccc2c(NCCCCCCNc3ccnc4cc(Cl)ccc34)ccnc2c1
tested.target: A549
GI50: 4.69 µM (inactive)
--
molecule: Nc1ccc(C(=O)CC2(O)C(=O)Nc3c(Cl)cc(Cl)cc32)cc1 (centres undefined)
tested.target: A549
GI50: > 100 µM (inactive)
--
molecule: COc1ccccc1CCN1CCN(CCCc2ccccc2)CC1
tested.target: A549
GI50: 85.7 µM (inactive)
--
molecule: CCOc1ncn(-c2ccc(NC(=S)NC3OC(CO)C(O)C(O)C3O)cc2)n1 (centres undefined)
tested.target: A549
GI50: > 100 µM (inactive)
--
molecule: C/C(=N\NC(=O)/C(C#N)=C\c1ccc(N(CCC#N)CCC#N)cc1)c1ccccc1
tested.target: A549
GI50: > 10 µM (inactive)
--
molecule: O=C(O)CCNS(=O)(=O)c1ccc2ccccc2c1
tested.target: A549
GI50: > 100 µM (inactive)
--
molecule: COCCc1c(C)c(C#N)c2n(C)c3ccccc3n2c1=O
tested.target: A549
GI50: > 10 µM (inactive)
--
molecule: COc1ccc(CC2C3=C(CCN2C(=O)C2CCC2)CC2(CC3)OCCO2)cc1O (centres undefined)
tested.target: A549
GI50: 40.9 µM (inactive)
--
molecule: COc1ccc(N)c(C(O)CCNC(C)=O)c1 (centres undefined)
tested.target: A549
GI50: > 100 µM (inactive)

---

- System: DU-145
- method.notes: NCI tumour cell line growth inhibition, 48 h
The source made the active and inactive calls. No stated cut-off is given here; in the data, active = GI50 up to about 1.1 µM and inactive = higher.

compound: CCOC(=O)NC(OC)(C(F)(F)F)C(F)(F)F
GI50: > 100 µM (inactive)
//
compound: NC(=S)N/N=C1/CCCC2CCCC[C@@H]12 (some centres not stated)
GI50: > 100 µM (inactive)
//
compound: CCOP(=O)(OCC)C1CC(n2cc(C)c(=O)[nH]c2=O)OC1CO (configuration not stated)
GI50: > 100 µM (inactive)
//
compound: CC(=O)Oc1cc2c(n(C)c1=O)CCC2
GI50: > 100 µM (inactive)
//
compound: COc1ccc(C(C)NNC(=O)c2cc[n+]([BH2-]C#N)cc2)cc1OC (configuration not stated)
GI50: > 100 µM (inactive)
//
compound: Clc1sc(Cl)c2c1[C@@H](Cl)C[C@@H]2Cl
GI50: > 100 µM (inactive)
//
compound: CCOC1CC(=O)c2c(Br)sc(Br)c21 (configuration not stated)
GI50: 18 µM (inactive)
//
compound: OCc1cn(C(c2ccccc2)(c2ccccc2)c2ccccc2)cn1
GI50: > 100 µM (inactive)
//
compound: Clc1ccc2c(NCCCCCCNc3ccnc4cc(Cl)ccc34)ccnc2c1
GI50: 6.19 µM (inactive)
//
compound: C=CC1CCC[N+]1(CC(=O)OCC)Cc1ccccc1 (configuration not stated)
GI50: > 100 µM (inactive)
//
compound: CCCCCCCCCC(O)CC(=O)c1c(O)cccc1O (configuration not stated)
GI50: 38 µM (inactive)
//
compound: CCN(CC)CC1CCCCN1CC(=O)N1c2ccc(Br)cc2C(=O)Nc2cccnc21 (configuration not stated)
GI50: > 100 µM (inactive)

---

- Tested on: SF-295
- method.notes: NCI tumour cell line growth inhibition, 48 h
Calls of active or inactive are those of the source. No stated cut-off is given here; in the data, active = GI50 up to about 1.1 µM and inactive = higher.

molecule: C=C1c2nc3ccccc3n2C=C(c2ccccc2)N1c1ccc([N+](=O)[O-])cc1
GI50: 3.37 µM (inactive)
//
molecule: C=C1CCC2C(C)(CO)C(O)CCC2(C)C1CC(O)C1=CCOC1=O (stereo not given)
GI50: 46.2 µM (inactive)
//
molecule: CCN1C(=O)c2cc(OC)c(OC)cc2C(=O)C12OC(=O)c1cc3c(cc12)OCO3 (stereo not given)
GI50: 68.7 µM (inactive)
//
molecule: COc1ccccc1/C=C(\C#N)C(=O)c1ccccc1
GI50: > 100 µM (inactive)
//
molecule: Clc1ccc(-c2nc3ccc4ccccc4c3c3c2CCCC3)cc1
GI50: > 100 µM (inactive)

---

- Test system: SW-620
- method.notes: NCI tumour cell line growth inhibition, 48 h
Activity calls are given as the source filed them. Cut-off read from the data, not from the text of the source: active = GI50 up to about 1.1 µM and inactive = higher.
Possible outcomes: active, inactive

compound: O=C(O)c1cc(CCc2ccc(O)c(O)c2)ccc1O
tested.target: SW-620
category: inactive
--
compound: COc1cc(C(Cc2ccccc2)NC(C)=O)oc(=O)c1 (configuration not stated)
tested.target: SW-620
category: inactive
--
compound: Cc1ccc2nc(NC(=O)/C(=N\NC(=S)NN)C3C(=O)NC(=S)NC3=O)sc2c1
tested.target: SW-620
category: inactive
--
compound: CCC(O)C1Cc2c(C)cc3c(c2O1)C(=O)c1ccccc1C3=O (configuration not stated)
tested.target: SW-620
category: inactive
--
compound: COC(=O)NC1(NC(=O)OC)NC(=O)c2ccccc2N1
tested.target: SW-620
category: inactive
--
compound: C/C(=C\c1ccc2c(c1)OCO2)[N+](=O)[O-]
tested.target: SW-620
category: inactive
--
compound: CN(C)c1ccc(/C=C/C(=O)N[C@@H]2C(=O)N3[C@@H]2SC(C)(C)[C@@H]3C(=O)O)cc1
tested.target: SW-620
category: inactive
--
compound: CN1C(=O)CC2(C)c3cc(O)ccc3N(C)C12 (configuration not stated)
tested.target: SW-620
category: inactive
--
compound: NC(Cc1ccccc1)c1nccs1 (configuration not stated)
tested.target: SW-620
category: inactive
--
compound: CCN(CC)CCOc1ccc(N2Cc3ccccc3C2=O)cc1
tested.target: SW-620
category: inactive
--
compound: COC(=O)/C([Se]c1c(C)cc(C)cc1C)=C(\[Se]c1c(C)cc(C)cc1C)C(=O)OC
tested.target: SW-620
category: inactive
--
compound: CC(CCC(=O)O)c1ccc(Br)cc1 (configuration not stated)
tested.target: SW-620
category: inactive
--
compound: COc1cccc2c1c1ccc3c(c1n2C)C(=O)C=CC3=O
tested.target: SW-620
category: inactive
--
compound: C[C@]12Cc3conc3C(O)=C1CC[C@@H]1C2CC[C@@]2(C)C1CC[C@@H]2O (some centres not stated)
tested.target: SW-620
category: inactive
--
compound: C=C[C@]1(C)C[C@@H](OC(=O)CO)[C@@]2(C)[C@H](C)CC[C@]3(CCC(=O)[C@H]32)[C@@H](C)[C@@H]1O
tested.target: SW-620
category: inactive
--
compound: O=C1C=CC(=O)C2=C1[C@@H](O)C1CC=CC3C(=O)O[C@@H]2C31 (some centres not stated)
tested.target: SW-620
category: inactive
--
compound: O=C(c1ccco1)C1CC(c2ccc3ccccc3c2O)=NN1c1ccc([N+](=O)[O-])cc1[N+](=O)[O-] (configuration not stated)
tested.target: SW-620
category: inactive
--
compound: C=CCN1CCC2(CC1)NC(=O)c1ccccc1O2
tested.target: SW-620
category: inactive
--
compound: O=S(=O)(O)c1ccc(/N=N/c2ccc3c(S(=O)(=O)O)cccc3c2O)c2ccccc12
tested.target: SW-620
category: inactive
--
compound: CC/C=C/c1cc2c(cc1O)CCC1C2CC[C@@]2(C)C1CC[C@@H]2O (some centres not stated)
tested.target: SW-620
category: active
--
compound: c1ccc(C[n+]2cccc(-c3cc4ccccc4[nH]3)c2)cc1
tested.target: SW-620
category: inactive
--
compound: COc1cccc([C@H]2C/C(=N\NC(=O)C(=O)N[C@@H](C)c3ccccc3)c3ccccc3N2)c1
tested.target: SW-620
category: active
